Target: T1, PD-L1/Fc (UniProt Q9NZQ7 19-238, limits assumed)
T1 construct: not shown: Fc part
T1 sequence (Q9NZQ7 19-238 limits assumed): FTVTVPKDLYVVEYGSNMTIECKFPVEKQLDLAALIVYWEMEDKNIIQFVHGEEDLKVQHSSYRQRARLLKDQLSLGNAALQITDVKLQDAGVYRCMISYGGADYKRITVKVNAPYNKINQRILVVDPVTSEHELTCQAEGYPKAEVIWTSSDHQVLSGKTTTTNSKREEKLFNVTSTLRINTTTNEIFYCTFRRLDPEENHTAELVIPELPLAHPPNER
Assay: SPR (Biacore 8K), prokaryotically expressed antibody as ligand, PD-L1/Fc as analyte, 1:1 binding model
Below, each entry is listed with its recorded kon.
Just the number please, in M⁻¹ s⁻¹, no unit attached.

Binder: AH02030 (prokaryotically expressed antibody product) (Fab, V domains shown) VH: QVQLQESGPGLVKPSQTLSLTCTVTGYSITSGYTWHWIRQHPGKGLEWIGYIHYSGSTKYNPSLKSRFTITRDTSKNQFSLKLSSVTAADTAVYYCARNSLFASWGQGTLVTVSS VL: DIVLTQSPDSLAVSLGERATINCRASESVDTYGDSFMHWYQQKPGQPPKLLIYRASNLESGVPDRFSGSGSRTDFTLTISSLQAEDVAVYYCQQSNEAPYTFGGGTKLEIK
Value Unit: M⁻¹ s⁻¹
kon: 359000
//
Binder: AH01963 (prokaryotically expressed antibody product) (Fab, V domains shown) VH: QVQLQESGPGLVKPSQTLSLTCTVSGYSITSGYTWHWIRQHPGKGLEWIGYIHYSGSTKYNPSLKSRVTISRDTSKNQFSLKLSSVTAADTAVYYCARNSLFASWGQGTLVTVSS VL: DIVLTQSPDSLAVSLGERATINCRASESVDTYGDSFMHWYQQKPGQPPKLLIYRASNLESGVPDRFSGSGSGTDFTLTISSVQAEDVAVYYCQQSNEAPYTFGGGTKLEIK
Value Unit: M⁻¹ s⁻¹
kon: 474000

Any idea what its kon is? The binder is AH01950 (prokaryotically expressed antibody product) (Fab, V domains shown) VH: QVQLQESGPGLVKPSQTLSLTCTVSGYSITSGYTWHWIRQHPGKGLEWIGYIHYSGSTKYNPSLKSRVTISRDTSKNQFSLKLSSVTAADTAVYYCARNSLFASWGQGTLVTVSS VL: DIVLTQSPDSLAVSLGERATINCRASESVDTYGDSFMHWFQQKPGQPPKLLIYRASNLESGVPDRFSGSGSGTDFTLTISSLQAEDVAVYYCQQSNEAPYTFGGGTKLEIK
518000

Any idea what its kon is? The binder is AH01964 (prokaryotically expressed antibody product) (Fab, V domains shown) VH: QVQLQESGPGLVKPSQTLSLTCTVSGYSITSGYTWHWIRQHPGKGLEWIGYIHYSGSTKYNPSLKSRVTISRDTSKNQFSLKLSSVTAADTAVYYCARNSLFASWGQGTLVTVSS VL: DIVMTQSPDSLAVSLGERATINCRASESVDTYGDSFMHWYQQKPGQPPKLLIYRASNLESGVPDRFSGSGSGTDFTLTISSLQAEDVAVYYCQQSNEAPYTFGGGTKL
530000

Any idea what its kon is? The binder is AH01947 (prokaryotically expressed antibody product) (Fab, V domains shown) VH: QVQLQESGPGLVKPSQTLSLTCTVSGYSITSGYTWHWIRQHPGKGLEWIGYIHYSGSTKYNPSLKSRVTISVDTSKNQFSLKLSSVTAADTAVYYCARNSLFASWGQGTLVTVSS VL: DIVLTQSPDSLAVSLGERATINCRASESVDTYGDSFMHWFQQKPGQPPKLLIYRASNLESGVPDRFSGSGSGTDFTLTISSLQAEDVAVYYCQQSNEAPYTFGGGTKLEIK
533000
